These entries and their values trace back to patent EP0259014A2.

System: Escherichia coli K-12 R5
observation type: MIC (µg/mL)
Reply with just the number (in µg/mL).

As a guide, the following entries are already answered.
NC[C@H]1O[C@H](O[C@H]2[C@H](F)[C@@H](O[C@H]3O[C@H](CO)[C@@H](O)[C@H](N)[C@H]3O)[C@H](N)C[C@@H]2N)[C@H](N)[C@@H](O)[C@@H]1O: 100
NC[C@H]1O[C@H](O[C@H]2[C@H](F)[C@@H](O[C@H]3O[C@H](CO)[C@@H](O)[C@H](N)[C@H]3O)[C@H](N)C[C@@H]2N)[C@H](N)C[C@@H]1O: 25
NCC[C@H](O)C(=O)N[C@@H]1C[C@H](N)[C@@H](O[C@H]2O[C@H](CN)C[C@H](O)[C@H]2N)[C@H](F)[C@H]1O[C@H]1O[C@H](CO)[C@@H](O)[C@H](N)[C@H]1O: 12.5

With those in mind, consider the next molecule.
## Task Could you share what MIC was measured for NC[C@H]1O[C@H](O[C@H]2[C@H](O)[C@@H](O[C@H]3O[C@H](CO)[C@@H](O)[C@H](N)[C@H]3O)[C@H](N)C[C@@H]2N)[C@H](N)[C@@H](O)[C@@H]1O , tested on Escherichia coli K-12 R5?
## Result 50
